Reported pEC50 values for the following compounds.
# Tested on: SARS-CoV-2 (USA_WA1/2020)
# Procedure Text: microbe, parasite or virus in culture
# Assay type: cell-based
# Experimental Parameters: Severe acute respiratory syndrome coronavirus 2, Vero C1008, SARS-CoV-2 CPE assay, Vero E6 cells; confirmed anti-SARS-CoV-2 compounds; read-out: CPE EC50
Counter-ions that a name gives are not always drawn.
Lab note: report pEC50 as minus log10 of the concentration in molar units, number only.

Previously resolved entries follow.
Exam item: Fill blank: measured pEC50 of the compound `CC(/C=C/[C@@H]1C[C@]1(C)c1ccc2c(c1)C(C)(C)CCC2(C)C)=C\C(=O)O` is ____.
Marked response: 4.95

Exam item: Given the compound `CCCCCCCCn1cc(CC(N)=O)c2cc(-c3cccc(C)c3)ccc21` , what is its reported pEC50?
Marked response: 4.95

Exam item: Bench note: what pEC50 did `Cc1ccc(NC(=O)Nc2cc(C(F)(F)F)ccc2F)cc1Nc1ccc2c(c1)NC(=O)/C2=C\c1ccc[nH]1` show?
Marked response: 5.50

---
Exam item: pEC50 lookup needed for `COc1ccc(-c2csc(NC(=O)[C@H]3CCCCN3S(=O)(=O)c3ccc(C)cc3)n2)cc1` , thanks.
Marked response: 5.00

Exam item: Entry CC(CN(C)C)CN1c2ccccc2CCc2ccccc21 (stereo not shown) [Trimipramine maleate] has what pEC50?
Marked response: 5.00

Exam item: Which measured pEC50 value corresponds to `COc1c(C)cnc(Cn2cnc3c(Cl)nc(N)nc32)c1C` ?
Marked response: 5.65

Exam item: Give its pEC50 value. Item: CC(C)COCC(CN(Cc1ccccc1)c1ccccc1)N1CCCC1 (stereo not shown)
Marked response: 4.95

----------
# System: SARS-CoV-2 (USA_WA1/2020)
# Procedure Text: microbe, parasite or virus in culture
# Format: cell-based
# Experimental Parameters: Severe acute respiratory syndrome coronavirus 2, Vero C1008; SARS-CoV-2 CPE assay, Vero E6 cells; efficacy; read-out: CPE % Efficacy
Counter-ions that a name gives are not always drawn.
Quantity: Emax (%)
Express your answer in %, writing the number without its unit.

Exam item: # Emax lookup, item `Clc1ccc2c(c1)C(N1CCNCC1)=Nc1ccccc1O2`
Marked response: 34.1

Exam item: What measured Emax goes with `Cc1ccc(NC(=O)Nc2cc(C(F)(F)F)ccc2F)cc1Nc1ccc2c(c1)NC(=O)/C2=C\c1ccc[nH]1` ?
Marked response: 84

Exam item: Can you look up the measured Emax of `CN(C)c1cc2c(cc1Sc1nc3c(N)nccc3n1CCNCC(C)(C)C)OCO2` for me?
Marked response: 74.5

***
Exam item: Given the compound CC(CN(C)C)CN1c2ccccc2CCc2ccccc21 (centres unmarked) [Trimipramine maleate] , what is its reported Emax?
Marked response: 51.8

Exam item: Quick one: Emax for c1ccc(-c2ccc(C(c3ccccc3)n3ccnc3)cc2)cc1 (centres unmarked) ?
Marked response: 36.4

Exam item: Fill in the blank: the reported Emax of `CN1CCN(CC/C=C2/c3ccccc3Sc3ccc(S(=O)(=O)N(C)C)cc32)CC1` is ____.
Marked response: 70.6

----------
# System: Vero E6 cells
# Experimental Parameters: read-out: Cytotox CC50; cytotoxicity counter-assay, Vero E6 cells without virus
Recorded measurements of CC50, one per entry
For clarity, give the value followed by its unit.

Exam item: Given the molecule CN1CCN(S(=O)(=O)c2ccc(-c3cnc(N)c(C(=O)Nc4cccnc4)n3)cc2)CC1 [AZD-2858] , what is its reported CC50?
Marked response: 12.6 µM

Exam item: Entry under review: COc1cc2ncnc(Sc3nnc(C)s3)c2cc1OC [SKLB1002] . Reported CC50?
Marked response: 7.08 µM

Exam item: Query (molecule): O=C(O)c1ccc(CCCc2ccc(OCCc3ccc(F)cc3)cc2)o1 [D-942] ; field requested: CC50
Marked response: 11.2 µM

Exam item: Record request: CC50 value, item O=C1NC(=O)/C(=C/c2ccc3c(c2)OC(F)(F)O3)S1 [AS-604850]
Marked response: 11.2 µM

Next molecule, please.
Exam item: Sample `CN1CCN(C(=O)c2ccc(Nc3nccc(-c4cccs4)n3)cc2Cl)CC1` — what was its CC50?
Marked response: 10 µM

----------
# Procedure Text: in vitro
# Experimental Parameters: African green monkey
Quantity: cytotoxicity at 72 h (%)
Enter your answer as a number in %; do not include the unit.

Observe how each entry below is paired with its result.
Exam item: Using the record for `CC(/C=C/[C@@H]1C[C@]1(C)c1ccc2c(c1)C(C)(C)CCC2(C)C)=C\C(=O)O` , report its cytotoxicity at 72 h.
Marked response: 36.8

Exam item: Which cytotoxicity at 72 h reading was recorded for the compound `CSc1ccc(C(=O)/C=C/c2cc(C)c(OC(C)(C)C(=O)O)c(C)c2)cc1` ?
Marked response: 0

Exam item: Could you share which cytotoxicity at 72 h value was measured for CN(C)CCOC(C)(c1ccccc1)c1ccc(Cl)cc1 (centres unmarked) ?
Marked response: 36.9

Exam item: Given the compound `Cc1cc(O[C@@H](CCC(F)(F)F)c2ccc(C(=O)NCCC(=O)O)cc2)cc(C)c1-c1ccc(C(C)(C)C)cc1` , what is its reported cytotoxicity at 72 h?
Marked response: 37

Exam item: Dear colleague, I am looking for the recorded cytotoxicity at 72 h of the following compound: `CCn1c(=O)c(-c2cc(NC(=O)Nc3ccccc3)c(F)cc2Br)cc2cnc(NC)cc21`
Marked response: 48.5

Exam item: Bench note: what cytotoxicity at 72 h did `CCN(CC)CCOc1ccc2c(c1)C(=O)c1cc(OCCN(CC)CC)ccc1-2` show?
Marked response: 97.2

Here is another compound to look at.
Exam item: What value of measured cytotoxicity at 72 h is listed for CC(CN1c2ccccc2Sc2ccc(S(=O)(=O)N(C)C)cc21)N(C)C (centres unmarked) ?
Marked response: 0

----------
# Test system: Vero E6 cells
# Experimental Parameters: Vero E6 cells without virus, 72 h
Listing: % Cytotox of selected molecules

Observe how each entry below is paired with its result.
Exam item: # query: % Cytotox of entry N#Cc1c(C2CCNCC2)cc(-c2c(O)cccc2OCC2CC2)nc1N [IKK-2 inhibitor VIII, reference compound]
Marked response: <30%

Exam item: Any idea what its % Cytotox is? The molecule is Cn1nc(C(C)(C)C)cc1C(=O)N[C@@H](Cc1cccc(Cl)c1)C(=O)NCC#N [Cathepsin Inhibitor 1, reference compound]
Marked response: <30%

Field: next molecule
Exam item: Which value of % Cytotox has been reported for CCC[C@@H](NC(=O)N1C(=O)C(CC)(CC)[C@@H]1Oc1ccc(C(=O)N2CCN(C)CC2)cc1)c1ccc2c(c1)OCO2 [DMP 777, reference compound] in the records?
Marked response: <30%

----------
# Tested on: SARS-CoV-2 (USA_WA1/2020)
# Procedure Text: microbe, parasite or virus in culture
# Type: cell-based
# Experimental Parameters: Severe acute respiratory syndrome coronavirus 2, Vero C1008; SARS-CoV-2 CPE assay, Vero E6 cells; efficacy; read-out: CPE % Efficacy
Counter-ions that a name gives are not always drawn. *1 amine or outer side, *2 acyl side, *3 side chain or, on linkers, in order; H or OH if unused. Where a SMILES comes first, the peptide text is derived from it. Bridges are numbered along the chain shown (N, C = ends). [ ]: non-standard residue; d: D form. The star is where a group is joined. pTerphenylCO(4''-OnC5H11) = CCCCCOc1ccc(-c2ccc(-c3ccc(C(=O)*)cc3)cc2)cc1; Orn(4R-OH,5R-OH) = O=C([C@H](C[C@@H](O)[C@@H](O)N[*:3])N[*:1])[*:2]; hTyr(3S-OH,4S-OH) = N[C@H](C(=O)O)[C@H](O)[C@@H](O)c1ccc(O)cc1; Pro(3S-OH,4S-Me) = C[C@H]1CN[C@H](C(=O)O)[C@H]1O; Hyp = O=C(O)[C@@H]1C[C@@H](O)CN1
Attribute: Emax
Just the number in %, nothing appended.

Here's what some known entries look like.
Exam item: Suppose we examine the molecule `COc1cc(N2CCN(C)CC2)ccc1Nc1nccc(-c2cn(C)c3cnccc23)n1` ; what Emax value has been reported?
Marked response: 79.2

Exam item: Which Emax is reported for this molecule? CC1CCCCN1CCCOC(=O)c1ccc(OC2CCCCC2)cc1 (stereo not shown)
Marked response: 79.7

Exam item: Field request: Emax | item: `CC/C(=C(\c1ccccc1)c1ccc(OCCN(C)C)cc1)c1ccccc1`
Marked response: 102

Exam item: I would be grateful if you could share the reported Emax for CC(=O)Oc1ccccc1C(=O)Nc1ncc([N+](=O)[O-])s1 [Nitazoxanide] .
Marked response: 73.7

Exam item: Need Emax of CN1CCCN(C(c2ccccc2)c2ccc(Cl)cc2)CC1 (stereo not shown) , thanks.
Marked response: 84.3

Next:
Exam item: Tell me the measured Emax of `O=c1c2ccccc2[se]n1-c1ccccc1` , please.
Marked response: 38.1

Exam item: Recorded Emax of Cc1nc(Nc2ccc(F)cc2)nc(N2CCc3ccccc3C2C)c1C (stereo not shown) [Revaprazan HCl] , please.
Marked response: 60.4

Exam item: Fill in the blank: the reported Emax of CCCCCOc1ccc(-c2ccc(-c3ccc(C(=O)N[C@H]4C[C@@H](O)[C@@H](O)NC(=O)[C@@H]5[C@@H](O)[C@@H](C)CN5C(=O)[C@H]([C@@H](C)O)NC(=O)[C@H]([C@H](O)[C@@H](O)c5ccc(O)cc5)NC(=O)[C@@H]5C[C@@H](O)CN5C(=O)[C@H]([C@@H](C)O)NC4=O)cc3)cc2)cc1 [Anidulafungin] ({pTerphenylCO(4''-OnC5H11)}-[Orn(4R-OH,5R-OH)]T[Hyp][hTyr(3S-OH,4S-OH)]T[Pro(3S-OH,4S-Me)]; lactam 1-C) is ____.
Marked response: 68.4

Exam item: If you can, please state the reported Emax value of `CN(C)[C@@H](CCOc1cccc2ccccc12)c1ccccc1` .
Marked response: 82.6

Exam item: Using the record for CN(C)CCCN1c2ccccc2Sc2ccc(C(F)(F)F)cc21 [Triflupromazine hydrochloride] , report its Emax.
Marked response: 77.3

Exam item: Would you kindly share the measured Emax for `COc1ccc2cc1Oc1ccc(cc1)C[C@H]1c3c(cc4c(c3Oc3cc5c(cc3OC)CCN(C)[C@@H]5C2)OCO4)CCN1C` ?
Marked response: 91.3

Exam item: Report Emax for `Cc1cc(O[C@@H](CCC(F)(F)F)c2ccc(C(=O)NCCC(=O)O)cc2)cc(C)c1-c1ccc(C(C)(C)C)cc1` please.
Marked response: 49.2

Exam item: For `COc1c(C)cnc(Cn2cnc3c(Cl)nc(N)nc32)c1C` , what is its reported Emax?
Marked response: 51.3

Exam item: Look up Emax: O=c1[nH]c2ccccc2n1CCCN1CCN(C(c2ccccc2)c2ccccc2)CC1 [Oxatomide]
Marked response: 83.9

Exam item: // lookup Emax for `Oc1c(I)cc(Cl)c2cccnc12`
Marked response: 55.1

Exam item: Bench note: what Emax did `CC[C@H](CC#N)OC(=O)N[C@@H](C)c1cccc(NC(=O)Nc2ccc(-c3cnco3)c(OC)c2)c1` show?
Marked response: 95.3

Exam item: Which value of Emax has been reported for `Cc1ccc(-c2cc(C(F)(F)F)nn2-c2ccc(S(N)(=O)=O)cc2)cc1` in the records?
Marked response: 79.2

Exam item: Recorded Emax of CCC(=O)c1ccc2c(c1)N(CCCN(C)C)c1ccccc1S2 [Propionylpromazine hydrochloride] , please.
Marked response: 72.3

Exam item: Tell me the measured Emax of `O=C(CCCN1CCC2(CC1)C(=O)NCN2c1ccccc1)c1ccc(F)cc1` , please.
Marked response: 61.2

Exam item: Quick check: Emax of CN1CCN(CCCN2c3ccccc3Sc3ccc(Cl)cc32)CC1 [Prochlorperazine dimaleate] ?
Marked response: 107

Exam item: State the recorded Emax for this entry: `Oc1c(Cl)cc(Cl)c2cccnc12`
Marked response: 64.9

Exam item: What Emax value was documented for this molecule, CC(C)COCC(CN(Cc1ccccc1)c1ccccc1)N1CCCC1 (stereo not shown) ?
Marked response: 113

Exam item: Give the measured Emax of `Cn1c(NC[C@@H](N)Cc2ccccc2)nc(-c2ccncc2)c(-c2ccc3ccccc3c2)c1=O` .
Marked response: 75
